# assayed.target: Δ^1–28 L-PGDS (Homo sapiens, UniProt P41222)
# Sequence (P41222 29-190, stated change not applied): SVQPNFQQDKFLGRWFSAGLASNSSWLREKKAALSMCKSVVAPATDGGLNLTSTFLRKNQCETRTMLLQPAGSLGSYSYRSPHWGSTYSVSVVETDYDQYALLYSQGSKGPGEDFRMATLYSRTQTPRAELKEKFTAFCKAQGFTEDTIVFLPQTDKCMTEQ
# method.summary: Intrinsic tryptophan fluorescence quenching assay
# Type: binding
# test.parameters: compound 20 μM, L-PGDS 1.5 μM, pH 8.0; mean ± SE
Consider the following compounds; for each one, report its Quenching (%), fluorescence reduction relative to vehicle-treated Δ^1–28 L-PGDS.
Give bare numbers, in %.

CCCCC/C=C\C/C=C\C/C=C\C/C=C\CCCC(=O)OC(CO)CO [2-AG, 2-arachidonoylglycerol] = −0.8

Please report Quenching (%), fluorescence reduction relative to vehicle-treated Δ^1–28 L-PGDS for every entry that follows.
1. CCCCC/C=C\C/C=C\C/C=C\C/C=C\CCCC(=O)NCCO [AEA, N-arachidonoylethanolamine]
2. CCCCCC/C=C\CCCCCCCC(=O)O [PLA, palmitoleic acid]
3. CCCCCCCC/C=C\CCCCCCCC(N)=O [Oleamide]
4. CCCCC[C@H](O)/C=C/[C@H]1[C@H](O)CC(=O)[C@@H]1C/C=C\CCCC(=O)O [PGE2, prostaglandin E2]

**A:**
1: 3.1; 2: 11.9; 3: 3.6; 4: 6.5

Could you tell me Quenching (%), fluorescence reduction relative to vehicle-treated Δ^1–28 L-PGDS for each of these compounds? They are listed below.
1. CC1=C(/C=C/C(C)=C/C=C/C(C)=C/C(=O)O)C(C)(C)CCC1 [all-trans retinoic acid]
2. CCCCCCC(C)(C)c1cc(O)c2c(c1)OC(C)(C)[C@@H]1CC=C(C(=O)O)C[C@@H]21 [AJA, ajulemic acid]
3. CCCCCCCCCCCCCCCC(=O)NCCO [PEA, palmitoylethanolamide]

**A:**
1: 71.1; 2: 21.9; 3: 1.3
